test system: VchCAST RNA-guided transposition machinery (E. coli BL21(DE3) host, lacZ target); test: relative integration efficiency (T-RL orientation) vs wild-type transposon end (log2 (normalized fold change)); transposon end mutated: right end (5 bp flank + 75 bp right end); higher = more efficient transposition
Item-by-item account of relative integration efficiency (log2)
Returns: the value as a bare number; no unit string appended.

A selection of reference data follows.
- residue_codes: "ACATTTGTTGATACAACCATAAAATGATAATTACTCTGATCATAGTCAGACCAACATTGCTACGACCCCACCCATAAATTGATAATTATCAGTGGGTATTTAACTATAACGGTATTCGCACCGACAC"
  property: "relative integration efficiency (log2)"
  data_value: -2.94
- residue_codes: "ACATTTCTCGATACAACCATAAAATGATAATTACACCCATAAATGGATAATTATCACACCCAATTTAACTATAACGCTCTGATCATAGTCAGACCAACATTGCTACGACCCGTATTCGCACCGACAC"
  property: "relative integration efficiency (log2)"
  data_value: -1.99
- residue_codes: "ACATTTGTTGATACAACCATAAAATGATAATTACACCCATACCTTGATAATTATCACACCCATAAATTGATATTGCCTCTGATCATAGTCAGACCAACATTGCTACGACCCGTATTCGCACCGACAC"
  property: "relative integration efficiency (log2)"
  data_value: -0.707
- residue_codes: "ACATTTGTTGATACAACCATAAAATGATAATTACACCCATAAATTGATAATTATCACACCCATAAATTGATATTGCCTAGGATCATAGTCAGACCAACATTGCTACGACCCGTATTCGCACCGACAC"
  property: "relative integration efficiency (log2)"
  data_value: 0.0464

**Query** Which relative integration efficiency (log2) reading was recorded for the sequence ACATTGTGGGATACAACCATAAAATGATAATTACACCCATAAATTGATAATTATCACACCCATAAATTGATATTGCCTCTGATCATAGTCAGACCAACATTGCTACGACCCGTATTCGCACCGACAC ?
**Result** -5.61

**Query** Fill in the blank: the reported relative integration efficiency (log2) of ACATTTGTTGATACAACCATAAAATGATAATTACTCTGATCATAGTCAGACCACACCCATAAATTGATAATTATCACACCCATAAATTGATATTGCACATTGCTACGACCCGTATTCGCACCGACAC is ____.
**Result** -4.6

**Query** Given the entry ACATTTGTTGATACAACCATAAAAGGATAATTACCCCCATAAATTGATAATTATCACACCCAATTTAACTATAACGCTCTGATCATAGTCAGACCAACATTGCTACGACCCGTATTCGCACCGACAC , report its measured relative integration efficiency (log2).
**Result** -1.55

**Query** Query (sequence): ACATTAGTGGATACAACCATAAAATGATAATTACACCCATAAATTCATAATTATCACACCCAATTTAACTATAACGCTCTGATCATAGTCAGACCAACATTGCTACGACCCGTATTCGCACCGACAC ; field requested: relative integration efficiency (log2)
**Result** -7.6

**Query** Any idea what its relative integration efficiency (log2) is? The sequence is ACATTTGTTGATACAACCATATATTGATATCTCCACCCATAAATTGATAATTATCACACCCATAAATTGATAATTACTCTGATCATAGTCAGACCAACATTGCTACGACCCGTATTCGCACCGACAC
**Result** -0.315

**Query** Fill in: relative integration efficiency (log2) of ACATTTGTTGATACAACCATAAAGTGATATTTACAACCATAAAATGATAATTATCACACCCATAAATTGATAATTACTCTGATCATAGTCAGACCAACATTGCTACGACCCGTATTCGCACCGACAC is ___
**Result** 0.346

* * *

system: VchCAST RNA-guided transposition machinery (E. coli BL21(DE3) host, lacZ target); assay: relative integration efficiency (T-LR orientation) vs wild-type transposon end (log2 (normalized fold change)); transposon end mutated: right end (5 bp flank + 75 bp right end); higher = more efficient transposition
property: relative integration efficiency (log2)
Number only, no unit.

Examples with their reported relative integration efficiency (log2) follow.
- residue_codes: "ACATTTGTTGATACACCCATAAATTGATAATTACAACCATAAAATGATAATTATCACAACCATAAGTTGATATTTTCTCTGATCATAGTCAGACCAACATTGCTACGACCCGTATTCGCACCGACAC"
  relative integration efficiency (log2): -0.36
- residue_codes: "ACATTTGTTGATACAACCATTAAATGATAATTACACCCATAAATTGATAATTGTGACACCGAATTTAACTATAACGCTCTGATCATAGTCAGACCAACATTGCTACGACCCGTATTCGCACCGACAC"
  relative integration efficiency (log2): 1.99
- residue_codes: "ACATTGGTTCATACAACCATAAAATGATAATTACACCCATAAATTCATCATTATCACACCCAATTTAACTATAACGCTCTGATCATAGTCAGACCAACATTGCTACGACCCGTATTCGCACCGACAC"
  relative integration efficiency (log2): -6.18
- residue_codes: "ACATTTGTTGATACAACCATAAAATCATAATTACACCCATCAATTGATAATTATCCCACCCCATTTAACTATAACGCTCTGATCATAGTCAGACCAACATTGCTACGACCCGTATTCGCACCGACAC"
  relative integration efficiency (log2): -0.633

Now examine the next entry.
**Query** Please provide the recorded relative integration efficiency (log2) for ACATTTGTTGATACACCCATAAATTGATAATTACAACCATAAAATGATAATTATCACACCCATAAATTGATATTGCCTCTGATCATAGTCAGACCAACATTGCTACGACCCGTATTCGCACCGACAC , tested on VchCAST RNA-guided transposition machinery (E. coli BL21(DE3) host, lacZ target).
**Result** -0.673

* * *

Below is a list of entries, each paired with its recorded relative integration efficiency (log2) value.
tested on: VchCAST RNA-guided transposition machinery (E. coli BL21(DE3) host, lacZ target); assay: relative integration efficiency (T-RL orientation) vs wild-type transposon end (log2 (normalized fold change)); transposon end mutated: right end (5 bp flank + 75 bp right end); higher = more efficient transposition
Could you respond with only the numeric value?

Illustrative cases are given below, each with its answer.
- residue_codes: "ACATTTGTTGATACACCCATAAATTGATATTGCCACCCATAAATTGATAATTATCACAACCATAAAGTGATATTTACTCTGATCATAGTCAGACCAACATTGCTACGACCCGTATTCGCACCGACAC"
  data_value: -0.75
- residue_codes: "ACATTTGTTGATACAACCATCAAATGGTAATTCCACCCCTAAATTGATAATTATCACACCCAATTTAACTATAACGCTCTGATCATAGTCAGACCAACATTGCTACGACCCGTATTCGCACCGACAC"
  data_value: -5.34

We next turn to a different sequence, shown below.
**Query** Requested field: relative integration efficiency (log2). Item: ACATTTGTTGATACAACCATAAGTTGATATTTTCAACCATAAAATGATAATTATCACACCCATAAATTGATATTGCCTCTGATCATAGTCAGACCAACATTGCTACGACCCGTATTCGCACCGACAC
**Result** 0.367

* * *

system: VchCAST RNA-guided transposition machinery (E. coli BL21(DE3) host, lacZ target); assay: relative integration efficiency (T-RL orientation) vs wild-type transposon end (log2 (normalized fold change)); transposon end mutated: right end (5 bp flank + 75 bp right end); higher = more efficient transposition
property: relative integration efficiency (log2)

Worked set:
- residue_codes: "ACATTTGTTGATACAACCATAAAATGATAATTACACCCATAAATTGATAATTATCACACGGATAAATTGATATTGCCTCTGATCATAGTCAGACCAACATTGCTACGACCCGTATTCGCACCGACAC"
  system_name: "VchCAST RNA-guided transposition machinery (E. coli BL21(DE3) host, lacZ target)"
  relative integration efficiency (log2): -0.238
- residue_codes: "ACATTTGTTGATACAACCATAAAATGCTAATTACACCCATAAATTGCTAATTATCACACCCATAAATTGCTATTGCCTCTGATCATAGTCAGACCAACATTGCTACGACCCGTATTCGCACCGACAC"
  system_name: "VchCAST RNA-guided transposition machinery (E. coli BL21(DE3) host, lacZ target)"
  relative integration efficiency (log2): -1.55
- residue_codes: "ACATTTGTTGATACAACCATATATTGATATCTCCAACCATATATTGATATCTCTCACAACCATAAAGTGATATTTACTCTGATCATAGTCAGACCAACATTGCTACGACCCGTATTCGCACCGACAC"
  system_name: "VchCAST RNA-guided transposition machinery (E. coli BL21(DE3) host, lacZ target)"
  relative integration efficiency (log2): -0.452
- residue_codes: "ACATTTGTTGATACACCCATAAATTGATATTGCCAACCATAAAATGATAATTATCACAACCATAAAGTGATATTTACTCTGATCATAGTCAGACCAACATTGCTACGACCCGTATTCGCACCGACAC"
  system_name: "VchCAST RNA-guided transposition machinery (E. coli BL21(DE3) host, lacZ target)"
  relative integration efficiency (log2): -0.59

# input for lookup
**Query** For the sequence shown here, ACATTTCTCGATACAACCATAAAATGATAATTACACCCATAAATTCATAATTATCACACCCAATTTAACTATAACGCTCTGATCATAGTCAGACCAACATTGCTACGACCCGTATTCGCACCGACAC , give the reported relative integration efficiency (log2).
**Result** -1.95
